assay: Heat resistance of exposed coating film of coloring alkali-developable photosensitive composition; format: physicochemical; conditions: coating film of composition containing the compound, on glass
assay.endpoint: λmax (nm)
Value expressed in nm; do not type the unit.

Query: # lookup: λmax of CCN(CC)c1ccc(/C=C(\C#N)C(=O)OCCCCCCCOC(=O)/C(C#N)=C/c2ccc(N(CC)CC)cc2)cc1 [Compound No. 5]
Response: 431

Query: # lookup: λmax of CCN(CC)c1ccc(/C=C(\C#N)C(=O)OCC(C)(COC(=O)/C(C#N)=C/c2ccc(N(CC)CC)cc2)COC(=O)/C(C#N)=C/c2ccc(N(CC)CC)cc2)cc1 [Compound No. 56]
Response: 430

Query: # lookup: λmax of N#C/C(=C\c1ccc(N(c2ccccc2)c2ccccc2)cc1)C(=O)OCCCCCCCOC(=O)/C(C#N)=C/c1ccc(N(c2ccccc2)c2ccccc2)cc1 [Compound No. 65]
Response: 430

----------
experiment: Solubility in PGMEA; assay type: physicochemical; conditions: concentration when PGMEA was added dropwise to 0.1 g of the compound under stirring and was dissolved completely
A collection of compounds and their measured Solubility (PGMEA)
Value expressed in wt %; do not type the unit.

Answered cases to consult:
CCN(CC)c1ccc(/C=C(\C#N)C(=O)Oc2ccc(C(C)(C)c3ccc(OC(=O)/C(C#N)=C/c4ccc(N(CC)CC)cc4)cc3)cc2)cc1 [Compound No. 6] = 0.9
CCN(CC)c1ccc(/C=C(\C#N)C(=O)OCC(COC(=O)/C(C#N)=C/c2ccc(N(CC)CC)cc2)(COC(=O)/C(C#N)=C/c2ccc(N(CC)CC)cc2)COC(=O)/C(C#N)=C/c2ccc(N(CC)CC)cc2)cc1 [Compound No. 16] = 1.8
CCCCN(CCCC)c1ccc(/C=C(\C#N)C(=O)OCC(C)(COC(=O)/C(C#N)=C/c2ccc(N(CCCC)CCCC)cc2)COC(=O)/C(C#N)=C/c2ccc(N(CCCC)CCCC)cc2)cc1 [Compound No. 102] = 7.5
CCN(CC)c1ccc(/C=C(\C#N)C(=O)OCCCOC(=O)/C(C#N)=C/c2ccc(N(CC)CC)cc2)cc1 [Compound No. 3] = 0.4

Query: # lookup: Solubility (PGMEA) of CCN(CC)c1ccc(/C=C(\C#N)C(=O)OCCCCCCCOC(=O)/C(C#N)=C/c2ccc(N(CC)CC)cc2)cc1 [Compound No. 5]
Response: 2.0

Query: # lookup: Solubility (PGMEA) of CCN(CC)c1ccc(/C=C(\C#N)C(=O)Oc2ccc(C3(c4ccc(OC(=O)/C(C#N)=C/c5ccc(N(CC)CC)cc5)cc4)CCCCC3)cc2)cc1 [Compound No. 52]
Response: 0.6

----------
A collection of molecules and their measured ε
assay: Evaluation of absorption wavelength property in CHCl3 solution; format: physicochemical; parameters: unit not given here; settings: molar absorption coefficient
# answer = number (no unit)

CCN(CC)c1ccc(/C=C(\C#N)C(=O)OCC(C)(COC(=O)/C(C#N)=C/c2ccc(N(CC)CC)cc2)COC(=O)/C(C#N)=C/c2ccc(N(CC)CC)cc2)cc1 = 160000
CC(COC(=O)/C(C#N)=C/c1ccc(N(C)C)cc1)OC(=O)/C(C#N)=C/c1ccc(N(C)C)cc1 (stereo not shown) = 84600
CCN(CC)c1ccc(/C=C(\C#N)C(=O)Oc2ccc(C(C)(C)c3ccc(OC(=O)/C(C#N)=C/c4ccc(N(CC)CC)cc4)cc3)cc2)cc1 = 132000

Query: # lookup: ε of CC(COC(=O)/C(C#N)=C/c1ccc(N2CCOCC2)cc1)OC(=O)/C(C#N)=C/c1ccc(N2CCOCC2)cc1 (stereo not shown)
Response: 62800

meta.source: patent US8664289B2
